For each record, write down the corresponding activity at 100 µM.
# Test system: HepG2 cells
# experiment-description: Measurement of gluconeogenesis inhibitory ability
# Format: cell-based
# condition-info: Homo sapiens, HepG2, 24 h, 100 μM compound, 24 hours, HepG2 cells; content of glucose formed from 14C-lactate; lower value = stronger inhibition; read-out: Gluconeogenesis inhibition (100 μM) aver.
Structures can show the parent of a compound that is named as a salt.
Enter your answer as a number in %; do not include the unit.

input: Find the measured activity at 100 µM of COc1ccc(OC)c(N=C(NCc2ccc3c(c2)OCO3)NC(=N)N)c1.Cl [Example 12, hydrochloride] and report it.
output: 27.4

input: Output measured activity at 100 µM for this item: N=C(N)NC(=Nc1cccc2ccccc12)NCc1ccc2c(c1)OCO2 [Example 3, hydrochloride]
output: 3.27

input: Assign activity at 100 µM to the following record: Cl.N=C(N)NC(=Nc1ccc(F)cc1)NCc1ccc2c(c1)OCO2 [Example 14, hydrochloride]
output: 102

input: Determine its reported activity at 100 µM: Cl.N=C(N)NC(=Nc1cc(Cl)cc(Cl)c1)NCc1ccc2c(c1)OCO2 [Example 34, hydrochloride]
output: 2.37

input: Check the records and state activity at 100 µM for Cl.N=C(N)NC(=NCc1ccc(Br)cc1)NCc1ccc2c(c1)OCO2 [Example 36, hydrochloride]
output: 92.9

input: Please list activity at 100 µM recorded for the molecule Cl.N=C(N)NC(=NCc1ccccc1)NCc1ccc2c(c1)OCO2 [Example 5, hydrochloride]
output: 108

input: Supply measured activity at 100 µM of CC(C)(C)CC(C)(C)N=C(NCc1ccc2c(c1)OCO2)NC(=N)N.Cl [Example 9, hydrochloride] in your reply.
output: 47.5

input: Output activity at 100 µM of Cl.N=C(N)NC(=Nc1ccc2c(c1)Cc1ccccc1-2)NCc1ccc2c(c1)OCO2 [Example 13, hydrochloride]
output: 2.15
